test.method.notes: protease stability score; higher = more stable; yeast display proteolysis, trypsin and chymotrypsin;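 also: log10 excess protease needed over predicted unfolded state with 0 meaning unfolded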
Reported protease stability score values are given for each entry in this list.
quantity.name: protease stability score

sequence.string: EEEAAHQFNKWLSLMKHGNEHKASEMLDKDAHIKVGDKTLQGREDVQRDVRRRKEELKFSMTIVDYKDHGDKARLTVEQTNDHNGRPRTRRANVTVHVSNGRVKEIVINDDS
numeric.result: -0.265
--
sequence.string: DEEDLQKLARSFQENLKTGNPDELMKLFDEDANLHYGDKKVHGREDIRRWADEMRRRVDKVTVLQVDAHGDKMDAVIVQRFDGRDVMISVDAKFHNGRFKEVVYRVRDEEHEKRLHT
numeric.result: 1.38
--
sequence.string: DREDHEHARTVFHNLQTGDFEEVKSLLDKNAKLTVGDRVLEGRDEIARQIRNELEEIRVEYVSVTFTVEGDKAQVHMVFKAEWNGNPADVRNVLRISQHNGRIKTMFIQISESQLEEYNR
numeric.result: 0.287
--
sequence.string: EEELVKRLKELFEAYQTGDEHQLKDLMDPNVRANIGDKTFHGREKLITHIKRYLDELDFQLKSVTFRLSGDHAVVTFEIEVDVNGVPRSFRFRFHIKMSNGKVTEIEIQFDPERQKKLES
numeric.result: 1.38
--
sequence.string: DEHVSRNFENMLRAIKSGNEEEIRELIDKNVRVQVGDKEIHGREEAVKDFKRRHEEIRFNLEVKRIEVRGNKVDVDAEASMTVNGKPYEWHVNIEVRARNGRIKYLNYRVPEEQVKKVES
numeric.result: 0.177
--
sequence.string: DEDTIRRQAKEFFKNFRDNDEDSLRTLMDENVEARYGDKTYHGRESVLTALATVLSQIDHLEVENLHVHNGRIEVVMKFVVNGREVRMNVIFHIRNGRIKKINIDPDEQRKLES
numeric.result: 1.49
--
sequence.string: DEEQLQREANEYNKLRRHGDPDRIVELADPNARAHVGDKRVHGREDMKRMVEEERKHADHITFTDFRVDGDKLEILFVITHNGQSDTRIMTIQWDNGKIKRLEVKNN
numeric.result: 0.381
--
sequence.string: DETDTAKDFAEELRTIFESNDFKRYQQLFDPNAKIHVGEKRLHGDRRVNNLIKEIFDRADHLHFDLREFEVKGEKVRIRYVEKQKINGKDETRDVVMVAVKQGDKMYITEVRHQ
numeric.result: 1.13
--
sequence.string: DSEAHELADTIMHALKHNNPDQLKEQFDPNVRVDIGNNRYHGREQFATEVIRTLREWRVEYKSFDQRNSGDKVDLRIRFVVNVNGRPHRYSVTVHLNFKDGRVKKMKVEMDPDQERKQTQ
numeric.result: 0.914
--
sequence.string: DNTHLRMMEQLLKNRSTGDERKVRENADKHVKIDVGDKRLHGREHLQKQQESERTQADVEIQVQTIHDHNGQIVMQFEITVNVNGRPERDTWTLVAEADNGRLKKLSLDLDPDKLKTMES
numeric.result: 0.327
--
sequence.string: DEENHRRATELLRAWKTGDEEELKRQMPPDVHIRVGDQEVHGREQAVKHLAQRRREASFRFKIKEYELQGEKIRIVARAEVHHNGEPQRYVVRLVILYRNGQAEEINQQEDG
numeric.result: 1.25
